- TGT: NADPH oxidase 5 (Homo sapiens) (UniProt Q96PH1)
- Sequence (Q96PH1 whole entry, looked up): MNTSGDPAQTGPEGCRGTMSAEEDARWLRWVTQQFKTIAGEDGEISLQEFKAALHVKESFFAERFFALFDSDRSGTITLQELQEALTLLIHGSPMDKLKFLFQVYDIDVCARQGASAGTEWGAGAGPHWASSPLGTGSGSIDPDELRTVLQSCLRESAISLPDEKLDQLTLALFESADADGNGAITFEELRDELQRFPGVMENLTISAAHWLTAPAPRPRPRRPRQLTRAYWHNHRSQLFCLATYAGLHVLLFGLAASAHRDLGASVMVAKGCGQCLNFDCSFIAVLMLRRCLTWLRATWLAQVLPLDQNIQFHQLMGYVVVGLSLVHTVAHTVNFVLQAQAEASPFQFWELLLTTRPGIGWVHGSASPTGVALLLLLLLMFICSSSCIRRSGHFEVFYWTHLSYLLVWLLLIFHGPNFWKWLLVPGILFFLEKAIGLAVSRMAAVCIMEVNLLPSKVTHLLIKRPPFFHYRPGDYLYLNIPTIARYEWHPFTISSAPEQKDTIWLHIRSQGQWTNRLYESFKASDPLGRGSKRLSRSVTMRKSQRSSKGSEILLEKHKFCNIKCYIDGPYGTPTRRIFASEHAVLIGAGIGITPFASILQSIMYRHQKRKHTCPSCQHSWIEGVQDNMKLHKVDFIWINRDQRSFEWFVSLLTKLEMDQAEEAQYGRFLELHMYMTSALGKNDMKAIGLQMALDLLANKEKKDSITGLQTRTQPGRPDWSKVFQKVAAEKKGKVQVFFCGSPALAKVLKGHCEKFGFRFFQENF
- TEST DESCRIPTION: NOX5-dependent H2O2 signal modulators, primary screen, NOX inhibitor project, cell-based, HEK293-NOX5, Amplex Red fluorescence (AID 1161)
- APPLIED CONDITIONS: HEK293-NOX5, ionomycin, 45 min, higher = more signal
z-score of -2 or higher: true (1). Under -2: false (0).

Look over these answered cases.
[
  {
    "MOL SMILES": "C=CCOC(=O)[C@H]1[C@@H]2C(=O)O[C@@H](c3ccccc3)[C@@H](c3ccccc3)N2[C@@H](c2ccc(OCCOC(=O)[C@@H]3C[C@@H]4C(=O)N5CCC[C@H]5C(=O)N4[C@@H]3c3cccc(OCCO)c3)cc2)[C@]12C(=O)Nc1ccccc12",
    "TGT": "NADPH oxidase 5 (Homo sapiens) (UniProt Q96PH1)",
    "CLASS NAME": "true (1)"
  },
  {
    "MOL SMILES": "COc1cc2c(cc1O)C=[N+](Cc1cccc(OC(F)(F)F)c1)CC2",
    "TGT": "NADPH oxidase 5 (Homo sapiens) (UniProt Q96PH1)",
    "CLASS NAME": "false (0)"
  },
  {
    "MOL SMILES": "COc1ccc(C(=O)Nc2cccc(CN3C(=O)[C@]4(O[C@H](CCO)[C@@H]([Si](C)(C)c5ccc(OC)cc5)[C@@H]4C)c4ccccc43)c2)cc1",
    "TGT": "NADPH oxidase 5 (Homo sapiens) (UniProt Q96PH1)",
    "CLASS NAME": "false (0)"
  },
  {
    "MOL SMILES": "C=C(COC)/C(=C/C[C@H](OC(=O)c1ccncc1)c1ccc(OCCO)cc1)c1cnc2ccccc2c1",
    "TGT": "NADPH oxidase 5 (Homo sapiens) (UniProt Q96PH1)",
    "CLASS NAME": "true (1)"
  }
]

In the following, a different compound is considered.
Request: Confirm if z-score reported for the compound COC(=O)[C@@]1(Cc2ccccc2)[C@H]2c3cc(C(=O)N4CCCC4)n(CC4CC4)c3C[C@H]2CN1C(=O)c1ccccc1 is -2 or above.
Response: false (0)
